Hi there, I'd appreciate the recorded EC50 for every entry that follows.
System: PBMC
Assay: Anti-HIV activity in Human peripheral blood mononuclear (PBM) cells
Assay type: functional, cell-based

Requested read-out: EC50. Entry: `Nc1nc(=O)n([C@H]2C=C(F)[C@@H](CO)S2)cc1F`
> 100 µM

Requested read-out: EC50. Entry: `Nc1ccn([C@@H]2C=C(F)[C@H](CO)S2)c(=O)n1`
0.13 µM

Requested read-out: EC50. Entry: `O=c1ccn([C@@H]2C=C(F)[C@H](CO)S2)c(=O)[nH]1`
> 100 µM

Reference for the values: ChEMBL document CHEMBL1148437
